Reported viability, T/C by item:
# System: NCI-H841 complex tumor spheroid viability
# test: Anticancer human tumor NCI-H841 cell line growth inhibition;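 further: spheroids exposed to compounds for 7 days before readout; 100% = DMSO vehicle control wells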
# conditions: second compound 0.003 µM; first compound 10 µM; stronger effect = lower value
reported-property: viability, T/C

>>> observed("CC1COCCN1c1cc(-c2ccnn2C)c2ccnc(-c3ccn[nH]3)c2n1 (stereo not drawn) + CC[C@@]1(O)C(=O)OCc2c1cc1n(c2=O)Cc2cc3c(CN(C)C)c(O)ccc3nc2-1")
"1.76%"
>>> observed("CC1COCCN1c1cc(-c2ccnn2C)c2ccnc(-c3ccn[nH]3)c2n1 (stereo not drawn) + COc1cc2c(cc1O)CCNC21CSC2c3c(OC(C)=O)c(C)c4c(c3C(COC1=O)N1C(O)C3Cc5cc(C)c(OC)c(O)c5C(C21)N3C)OCO4")
"0.17%"
>>> observed("Cc1cc(C)c(CNC(=O)c2cc(-c3ccc(CN4CCOCC4)cc3)cc3c2cnn3C2CCCC2)c(=O)[nH]1 + CC[C@@]1(O)C(=O)OCc2c1cc1n(c2=O)Cc2cc3c(CN(C)C)c(O)ccc3nc2-1")
"34.7%"

Attribution: PubChem BioAssay AID1845213
